STUDY TARGET: Polyunsaturated fatty acid 5-lipoxygenase (Rattus norvegicus)
RUN DESCRIPTION: Inhibition of 5-lipoxygenase pathway in rat polymorphonuclear assay (inhibition of 5-HETE formation)
# Change values compiled below
MEASURED ATTRIBUTE: Change (%)

[
  {
    "COMPOUND": "Cc1ccc(C(=O)c2nc3c(cc2C)CCCCC3)cc1",
    "RESULT NUMBER": -49
  },
  {
    "COMPOUND": "Cc1ccc(C(O)c2ccc3c(n2)CCCCC3)cc1 (stereo unspecified)",
    "RESULT NUMBER": -28
  },
  {
    "COMPOUND": "Cc1ccc([C@H](O)[C@@H]2CCCCc3cccnc32)cc1",
    "RESULT NUMBER": -31
  },
  {
    "COMPOUND": "Cc1cc2c(nc1C(O)c1ccccc1)CCCCC2 (stereo unspecified)",
    "RESULT NUMBER": -29
  },
  {
    "COMPOUND": "Cc1cc2c(nc1C(O)c1cccs1)CCCCC2 (stereo unspecified)",
    "RESULT NUMBER": 37
  },
  {
    "COMPOUND": "COc1cccc(C(O)c2nc3c(cc2C)CCCCC3)c1 (stereo unspecified)",
    "RESULT NUMBER": -34
  },
  {
    "COMPOUND": "Cc1ccc(C(O)c2nc3c(cc2C)CCCCC3)cc1 (stereo unspecified)",
    "RESULT NUMBER": -49
  },
  {
    "COMPOUND": "Cc1ccc(C(O)c2nc3c(cc2C)CCC3)cc1 (stereo unspecified)",
    "RESULT NUMBER": -45
  },
  {
    "COMPOUND": "Cc1ccc(C(O)c2nc3c(cc2C)CCCC3)cc1 (stereo unspecified)",
    "RESULT NUMBER": -44
  },
  {
    "COMPOUND": "Cc1ccc([C@@H](O)[C@H]2c3ncc(C)cc3CCC2(C)C)cc1",
    "RESULT NUMBER": 27
  },
  {
    "COMPOUND": "COC(c1ccc(C)cc1)c1nc2c(cc1C)CCCCC2 (stereo unspecified)",
    "RESULT NUMBER": -10
  }
]

---

STUDY TARGET: Polyunsaturated fatty acid 5-lipoxygenase (Rattus norvegicus)
RUN DESCRIPTION: Inhibition of 5-lipoxygenase pathway in rat polymorphonuclear assay (inhibition of 5-HETE formation)
MEASURED ATTRIBUTE: Change

[
  {
    "COMPOUND": "Cc1ccc(C(C)(O)c2nc3c(cc2C)CCCCC3)cc1 (stereo unspecified)",
    "RESULT": "-14%"
  },
  {
    "COMPOUND": "Cc1cc2c(nc1C(O)c1cccnc1)CCCCC2 (stereo unspecified)",
    "RESULT": "-5%"
  },
  {
    "COMPOUND": "Cc1ccc(C(N)c2nc3c(cc2C)CCCCC3)cc1 (stereo unspecified)",
    "RESULT": "-23%"
  },
  {
    "COMPOUND": "Cc1cnc2c(c1)CCCC2S(=O)(=O)c1ccccc1 (stereo unspecified)",
    "RESULT": "0%"
  },
  {
    "COMPOUND": "Cc1cc2c(nc1C(O)c1ccc(C(F)(F)F)cc1)CCCCC2 (stereo unspecified)",
    "RESULT": "5%"
  },
  {
    "COMPOUND": "Cc1ccc([C@H](O)[C@@H]2CCCc3cc(C)cnc32)cc1",
    "RESULT": "-49%"
  }
]
